Molecular target: recombinant HDM2 17-125 (UniProt Q00987 17-125)
Assay: FP competition with FITC-SAH-p53-8; FIG. 2B; axis prints HDMX, legend says HDM2
Metric: pIC50
Numbers only, as −log10 of the molar value.

Reported pIC50, binder QSQQTFXNLWRLLXQN (not fully specified; amino acids at positions S20 and P27 (p53 numbering) replaced with synthetic olefinic residues joined by an i, i+7 hydrocarbon staple; acetyl-capped N-terminus in the competition FP assay) [SAH-p53-8] : ____
6.67

Entry source: patent US20140018302A1
